- system: B7H3 expressed on LPS-stimulated human PBMCs (monocytes) (human) (UniProt Q5ZPR3)
- Sequence (Q5ZPR3 29-534): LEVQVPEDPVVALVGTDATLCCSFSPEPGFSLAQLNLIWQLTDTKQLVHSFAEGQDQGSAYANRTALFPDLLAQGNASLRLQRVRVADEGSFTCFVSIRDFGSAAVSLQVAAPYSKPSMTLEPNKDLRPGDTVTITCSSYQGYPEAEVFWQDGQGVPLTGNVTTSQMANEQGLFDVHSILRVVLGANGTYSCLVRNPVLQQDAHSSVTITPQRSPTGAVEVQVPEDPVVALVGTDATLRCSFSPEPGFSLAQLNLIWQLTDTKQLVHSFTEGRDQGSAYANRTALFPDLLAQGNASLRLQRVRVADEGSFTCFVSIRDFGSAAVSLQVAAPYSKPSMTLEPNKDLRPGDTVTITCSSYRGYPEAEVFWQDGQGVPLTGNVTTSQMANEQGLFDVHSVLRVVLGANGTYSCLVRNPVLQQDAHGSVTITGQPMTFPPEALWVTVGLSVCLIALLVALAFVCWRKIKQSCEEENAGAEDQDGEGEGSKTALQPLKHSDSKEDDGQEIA
- procedure details: flow cytometry on LPS-stimulated human PBMCs
pEC50: −log10 of the molar value.
quantity measured: pEC50

Use the examples below as a reference point.
binder	pEC50
#27-22 (VH2-2-VL2-2) (antibody, IgG1, V domains shown, Humanized antibody from murine #27; also called #27-VH2-2/VL2-2) VH: QVQLVQSGAEVVKPGASVKVSCKASGYTFTNYWMHWVKQAPGQGLEWIGMIHPNSGAFNYNERFKTRVTITVDKSTSTAYMELSSLRSEDTAVYYCARSTALATGYWGQGTLLTVSS VL: DIQLTQSPSFLSASVGDRVTMTCSASSSVSYMYWYQQKPGKSPKLLIYDTSNLASGVPSRFSGSGSGTEYTLTISSLQPEDFVTYYCQQWSSYPLTFGQGTKLEIK	> 9.00
#23-5423 (VH5-4-VL2-3) (antibody, IgG1, V domains shown, Humanized antibody from murine #23) VH: QVQLVQSGAEVKKPGESLKISCKASGYNFNNYWMHWVRQRPGKGLEWIGMIHPNSGTFNYNERFKRKATLTVDKSISTAYLQWSSLKAEDTAMYYCAKSTALATDYWGQGTLVTVSS VL: QIVLTQSPSTLSASVGDRVTITCSASSSVSYMYWYQQKPGKAPKLLIYDTSNLASGVPIRFSGSGSGTSYTLTISSLQPDDFATYYCQQWSSYPLTFGQGTKLEIK	> 8.52

Query binder follows.
// field: pEC50; key: #23-5424 (VH5-4-VL2-4) (antibody, IgG1, V domains shown, Humanized antibody from murine #23; also called #23-VH5-4/VL2-4) VH: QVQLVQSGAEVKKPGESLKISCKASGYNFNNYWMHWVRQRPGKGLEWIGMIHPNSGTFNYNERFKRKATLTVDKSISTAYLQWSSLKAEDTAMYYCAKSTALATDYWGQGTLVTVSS VL: QIVLTQSPSTLSASVGDRVTMTCSASSSVSYMYWYQQKPGKAPKLLIYDTSNLASGVPIRFSGSGSGTSYTLTISSMQPDDFVTYYCQQWSSYPLTFGQGTKLEIK ; value = > 8.52

Cited source: patent US20220119529A1
